System: Lederbergia lenta
Assay: Antibacterial activity against Bacillus lentus NCIM 2018 after 18 hr by disk diffusion method; further: test concentration or dose not given here
Format: functional
VALUE_TYPE: diameter of the inhibition zone (DIZ) (mm)

{"COMPOUND": "COc1cc(/C=N/NC(=O)Nn2c(-c3ccccc3)nc3ccccc3c2=O)ccc1O", "UNITS_LABEL": "mm", "ENDPOINT_VALUE": 18}
{"COMPOUND": "O=C(NN=C(c1ccccc1)c1ccccc1)Nn1c(-c2ccccc2)nc2ccccc2c1=O", "UNITS_LABEL": "mm", "ENDPOINT_VALUE": 17}
{"COMPOUND": "CC12CCC(C/C1=N/NC(=O)Nn1c(-c3ccccc3)nc3ccccc3c1=O)C2(C)C (stereo unspecified)", "UNITS_LABEL": "mm", "ENDPOINT_VALUE": 17}
{"COMPOUND": "CN(C)c1ccc(/C=N/NC(=O)Nn2c(-c3ccccc3)nc3ccccc3c2=O)cc1", "UNITS_LABEL": "mm", "ENDPOINT_VALUE": 18}
{"COMPOUND": "O=C(N/N=C1/C(=O)Nc2ccccc21)Nn1c(-c2ccccc2)nc2ccccc2c1=O", "UNITS_LABEL": "mm", "ENDPOINT_VALUE": 17}
{"COMPOUND": "O=C(O)c1cn(C2CC2)c2cc(N3CCNCC3)c(F)cc2c1=O", "UNITS_LABEL": "mm", "ENDPOINT_VALUE": 9}

Each recorded value in this set is attributed to ChEMBL document CHEMBL3046426.
